Tested on: Candida albicans
Test: Antifungal activity against Candida albicans after 72 hrs by broth microdilution method
Format: functional
Activity calls are given as the source filed them. The calls are words filed in the database; no cut-off is given here.

Compound	MIC50
COc1cc(I)nc(NC(=O)NS(=O)(=O)c2ccccc2C(=O)OCCCl)n1	4 µM
COC(=O)c1ccccc1CS(=O)(=O)NC(=O)Nc1nc(OC)cc(OC)n1 [BENSULFURON METHYL]	62 µM
COc1cc(Cl)nc(NC(=O)NS(=O)(=O)c2ccccc2C(=O)OCCI)n1	> 25 µM
COc1cc(Br)nc(NC(=O)NS(=O)(=O)c2ccccc2C(=O)OCCO[Si](C)(C)C(C)(C)C)n1	> 25 µM
CCOC(=O)c1ccccc1S(=O)(=O)NC(=O)Nc1nc(Cl)cc(OC)n1 [CHLORIMURON ETHYL]	2 µM
COc1cc(I)nc(NC(=O)NS(=O)(=O)c2ccccc2C(=O)OCCO[Si](C)(C)C(C)(C)C)n1	> 25 µM
CCOC(=O)c1cnn(C)c1S(=O)(=O)NC(=O)Nc1nc(OC)cc(OC)n1 [PYRAZOSULFURON ETHYL]	62 µM
COc1cc(Cl)nc(NC(=O)NS(=O)(=O)c2ccccc2C(=O)OCCBr)n1	> 25 µM
COc1cc(Cl)nc(NC(=O)NS(=O)(=O)c2ccccc2C(=O)OCCO)n1	> 25 µM
COc1cc(I)nc(NC(=O)NS(=O)(=O)c2ccccc2C(=O)OCCI)n1	12 µM
COC(=O)c1ccccc1S(=O)(=O)NC(=O)Nc1nc(I)cc(OC)n1	1 µM
CCOC(=O)c1ccccc1S(=O)(=O)NC(=O)Nc1nc(Br)cc(OC)n1	0.7 µM
COc1cc(Br)nc(NC(=O)NS(=O)(=O)c2ccccc2C(=O)OCCI)n1	> 25 µM
COc1nc(C)nc(NC(=O)NS(=O)(=O)c2ccccc2Cl)n1 [CHLORSULFURON]	156 µM
COc1cc(Cl)nc(NC(=O)NS(=O)(=O)c2ccccc2C(=O)OCCCl)n1	15 µM
CCOc1nc(NC)nc(NC(=O)NS(=O)(=O)c2ccccc2C(=O)OC)n1 [ETHAMETSULFURON METHYL]	inactive
COC(=O)c1ccccc1S(=O)(=O)NC(=O)N(C)c1nc(C)nc(OC)n1 [TRIBENURON METHYL]	inactive
COc1cc(I)nc(NC(=O)NS(=O)(=O)c2ccccc2C(=O)OCCBr)n1	12 µM
